B1: mRNA-splicing (parent)
chain: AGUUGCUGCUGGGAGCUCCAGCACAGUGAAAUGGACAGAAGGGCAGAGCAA

variants of: B1; assay: exon inclusion enrichment index; higher = more inclusion; WT1 exon 5 minigene, HEK293
The reader will find reported exon inclusion enrichment index values listed item by item below.
API doc: respond with a numeric literal and nothing else, no unit.

Solved cases below.
mutation spec: G5A C6U U7A G8U C9A A20U G21U
value measured: 0.0251
--
mutation spec: G5C C6G U7A G8C C9U U10C
value measured: 3.05
--
mutation spec: U17A
value measured: 0.131
--
mutation spec: C6A U7A C9A U10A A35U C36G
value measured: 0.054
--
mutation spec: G5C C6U G8C C9G U10A
value measured: 3.12
--
mutation spec: G5A C6G U7G C9A C22U
value measured: 0.000826
--
mutation spec: U4A C6G U7C U10C
value measured: 0.262
--
mutation spec: G5A C6U U7A G8U C9A G38C A39G
value measured: 0.115
--
mutation spec: G5A C6U U7A G8U C9A A23G C24G
value measured: 0.259
--
mutation spec: C6A U7C C9A U10C G12U G13A
value measured: 1.25

Looking up G5C C6G U7C G8C C9G U10C , I found its exon inclusion enrichment index recorded as 3.59

Looking up G5U G8U C9U A47G G48A , I found its exon inclusion enrichment index recorded as 0.0435

Looking up C6A U7C C9A U10C G28A A29U , I found its exon inclusion enrichment index recorded as 1.29
